- system tested: hCRTH2 (Homo sapiens)
- Construct: expressed in transfected cells; host or cells: HEK (human embryonic kidney) cells expressing hCRTH2
- protocol details: Radioligand Binding Assay A ([3H]PGD2 filtration binding, HEK-hCRTH2 membranes)
- test conditions: Table A, rated A-D
- Method: Radioligand binding assays were performed at room temperature in 50 mM Tris-HCl pH 7.4, 1 mM EDTA containing 2 mM MnCl2 and 3.0 nM [^3H]PGD2 (New England Nuclear, Boston, Mass.) (171 Ci mmol^−1), in a final volume of 0.2 ml. […] Total and non-specific binding were determined in the absence and the presence of 10 μM PGD2, respectively. […] The radioactivity was measured with Betaplate model 1205 (Wallac).
readout name: Ki

Would you please look over these solved cases?
[[record]]
compound_smiles = "O=C(O)CCCCc1cc2cc(C(=O)NCCCN3CCCC3)ccc2nc1-c1ccccc1"
endpoint_value = "201 to 700 nM"

[[record]]
compound_smiles = "O=C(O)CCCCc1cc2cc(C(=O)NCc3ccc(C(F)(F)F)nc3)ccc2nc1-c1ccccc1"
endpoint_value = "2.1 to 20 nM"

[[record]]
compound_smiles = "O=C(O)CCCCc1nc2cc(C(=O)NCc3cccc(Cl)c3)ccc2cc1-c1ccccc1"
endpoint_value = "0.1 to 2 nM"


For the compound C[C@H](CNC(=O)c1ccc2nc(-c3ccc(F)cc3)c(CCCCC(=O)O)cc2c1)c1ccccc1 , what Ki is on record?
2.1 to 20 nM

For the compound O=C(O)CCCCc1nc2cc(C(=O)N3CC[C@H](c4ccccc4)C3)ccc2cc1-c1ccccc1 , what Ki is on record?
2.1 to 20 nM

For the compound O=C(O)CCCCc1nc2cc(C(=O)N3CC[C@@H](c4ccccc4)C3)ccc2cc1-c1ccccc1 , what Ki is on record?
2.1 to 20 nM

For the compound O=C(O)CCCCc1cc2cc(C(=O)N3CCC(c4ccccc4)CC3)ccc2nc1-c1ccccc1 , what Ki is on record?
0.1 to 2 nM

For the compound O=C(O)CCCCc1cc2cc(C(=O)N[C@@H](c3ccccc3)C(F)(F)F)ccc2nc1-c1ccccc1 , what Ki is on record?
2.1 to 20 nM

###

- system tested: hCRTH2 (Homo sapiens)
- Construct: expressed in transfected cells; host or cells: HEK (human embryonic kidney) cells expressing hCRTH2
- Sequence (Q9Y5Y4 1-395): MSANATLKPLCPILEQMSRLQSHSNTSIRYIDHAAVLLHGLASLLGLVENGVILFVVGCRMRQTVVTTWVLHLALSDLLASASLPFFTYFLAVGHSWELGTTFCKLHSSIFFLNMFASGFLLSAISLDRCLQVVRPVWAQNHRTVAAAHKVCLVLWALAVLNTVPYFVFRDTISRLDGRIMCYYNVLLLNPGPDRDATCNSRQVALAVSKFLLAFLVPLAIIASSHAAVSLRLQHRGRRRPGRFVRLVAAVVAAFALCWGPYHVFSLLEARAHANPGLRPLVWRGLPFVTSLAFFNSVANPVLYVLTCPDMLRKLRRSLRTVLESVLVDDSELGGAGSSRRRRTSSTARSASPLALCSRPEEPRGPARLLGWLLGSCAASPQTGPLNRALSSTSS
- protocol details: Radioligand Binding Assay A ([3H]PGD2 filtration binding, HEK-hCRTH2 membranes)
- test conditions: Table A, rated A-D
pKi: −log10 of the molar value.
# reported pKi; entries follow

Would you please look over these solved cases?
[[record]]
compound_smiles = "C[C@@H](NC(=O)c1ccc2cc(-c3ccccc3)c(CCCCC(=O)O)nc2c1)c1ccc(Cl)cc1"
readout_name = "pKi"
endpoint_value = "8.70 to 10.00"

[[record]]
compound_smiles = "O=C(O)CCCCc1cc2cc(C(=O)N[C@@H]3CCCc4ccccc43)ccc2nc1-c1ccc(F)cc1"
readout_name = "pKi"
endpoint_value = "7.70 to 8.68"

[[record]]
compound_smiles = "C[C@H](NC(=O)c1cnc2nc(-c3ccc(F)cc3)c(CCCCC(=O)O)cc2c1)c1ccc(F)cc1"
readout_name = "pKi"
endpoint_value = "6.70 to 7.70"

[[record]]
compound_smiles = "O=C(O)CCCCc1nc2cc(C(=O)N3CCC[C@H](c4ccccc4)C3)ccc2cc1-c1ccccc1"
readout_name = "pKi"
endpoint_value = "7.70 to 8.68"


For the compound O=C(O)CCCCc1cc2cc(C(=O)N[C@@H]3CCc4cc(Cl)ccc43)ccc2nc1-c1ccc(F)cc1 , what pKi is on record?
7.70 to 8.68

For the compound Cc1cccc(CNC(=O)c2ccc3nc(-c4ccccc4)c(CCCCC(=O)O)cc3c2)c1 , what pKi is on record?
7.70 to 8.68

For the compound CN(Cc1cccc(C(F)(F)F)c1)C(=O)c1ccc2nc(-c3ccc(F)cc3)c(CCCCC(=O)O)cc2c1 , what pKi is on record?
6.70 to 7.70

###

- system tested: hCRTH2 (Homo sapiens, UniProt Q9Y5Y4)
- Construct: expressed in transfected cells; host or cells: HEK (human embryonic kidney) cells expressing hCRTH2
- protocol details: Radioligand Binding Assay A ([3H]PGD2 filtration binding, HEK-hCRTH2 membranes)
- test conditions: Table A, rated A-D
# reported Ki; entries follow

Would you please look over these solved cases?
[[record]]
molecule = "O=C(O)CCCCc1cc2cc(C(=O)N[C@@H](c3cc(Cl)cc(Cl)c3)C(F)(F)F)cnc2nc1-c1ccc(F)cc1 [Compound 6R]"
endpoint_value = "2.1 to 20 nM"

[[record]]
molecule = "O=C(O)CCCCc1cc2cc(C(=O)N[C@H]3CCCc4ccccc43)ccc2nc1-c1ccccc1 [Compound 1P]"
endpoint_value = "2.1 to 20 nM"


As a next step, examine the molecule that follows.
For the molecule O=C(O)CCCCc1cc2cc(C(=O)N[C@H]3CCc4ccccc43)ccc2nc1-c1ccccc1 [Compound 1N] , what Ki is on record?
2.1 to 20 nM

###

- system tested: hCRTH2 (Homo sapiens)
- Construct: expressed in transfected cells; host or cells: HEK (human embryonic kidney) cells expressing hCRTH2
- protocol details: Radioligand Binding Assay A ([3H]PGD2 filtration binding, HEK-hCRTH2 membranes)
- test conditions: Table A, rated A-D
readout name: Ki

[[record]]
compound = "C[C@H](NC(=O)c1ccc2nc(-c3ccc(F)cc3)c(CCCCC(=O)O)cc2c1)c1ccc(F)cc1"
readout_name = "Ki"
endpoint_value = "2.1 to 20 nM"

[[record]]
compound = "O=C(O)CCCCc1cc2cc(C(=O)N[C@@H]3CCc4ccc(F)cc43)cnc2nc1-c1ccc(F)cc1"
readout_name = "Ki"
endpoint_value = "20.1 to 200 nM"

[[record]]
compound = "O=C(O)CCCCc1cc2cc(C(=O)N3CCC[C@@H](c4ccccc4)C3)ccc2nc1-c1ccccc1"
readout_name = "Ki"
endpoint_value = "2.1 to 20 nM"

[[record]]
compound = "O=C(O)CCCCc1cc2cc(C(=O)OCc3ccccc3)ccc2nc1-c1ccccc1"
readout_name = "Ki"
endpoint_value = "0.1 to 2 nM"

[[record]]
compound = "O=C(O)CCCCc1cc2cc(C(=O)N[C@H]3CCc4cc(Cl)ccc43)cnc2nc1-c1ccc(F)cc1"
readout_name = "Ki"
endpoint_value = "2.1 to 20 nM"


For the compound O=C(O)CCCCc1cc2cc(C(=O)N[C@H]3CCCc4cc(Cl)ccc43)cnc2nc1-c1ccc(F)cc1 , what Ki is on record?
20.1 to 200 nM

For the compound N#Cc1ccc([C@H](NC(=O)c2ccc3nc(-c4ccc(F)cc4)c(CCCCC(=O)O)cc3c2)C(F)(F)F)cc1 , what Ki is on record?
20.1 to 200 nM

For the compound O=C(O)CCCCc1cc2cc(C(=O)NCCCN3CCCC3=O)ccc2nc1-c1ccccc1 , what Ki is on record?
2.1 to 20 nM

###

- system tested: hCRTH2 (Homo sapiens)
- Construct: expressed in transfected cells; host or cells: HEK (human embryonic kidney) cells expressing hCRTH2
- protocol details: Radioligand Binding Assay B (scintillation proximity assay, [3H]-PGD2, HEK-hCRTH2 membranes)
- test conditions: Table B, Radioligand Binding Assay B (SPA), rated A-D
pKi: −log10 of the molar value.
readout name: pKi

Would you please look over these solved cases?
[[record]]
compound = "COc1ccc(N2CCN(C(=O)c3ccc4nc(-c5ccc(F)cc5)c(CCCCC(=O)O)cc4c3)CC2)cc1 [Compound 5AV]"
endpoint_value = "7.70 to 8.68"

[[record]]
compound = "N#Cc1cccnc1N1CCN(C(=O)c2ccc3nc(-c4ccccc4)c(CCCCC(=O)O)cc3c2)CC1 [Compound 1AX]"
endpoint_value = "6.70 to 7.70"

[[record]]
compound = "CC1(C)CC(NC(=O)c2ccc3nc(-c4ccccc4)c(CCCCC(=O)O)cc3c2)c2ccccc2O1 (stereo not drawn) [Compound 1AP]"
endpoint_value = "6.70 to 7.70"

[[record]]
compound = "O=C(O)CCCCc1cc2cc(C(=O)N3CCN(c4c(Cl)cncc4Cl)CC3)ccc2nc1-c1ccccc1 [Compound 1AY]"
endpoint_value = "7.70 to 8.68"


For the compound N#Cc1ccccc1N1CCN(C(=O)c2ccc3nc(-c4ccc(F)cc4)c(CCCCC(=O)O)cc3c2)CC1 [Compound 5Ao] , what pKi is on record?
7.70 to 8.68

For the compound CC1(C)CCC(NC(=O)c2ccc3nc(-c4ccccc4)c(CCCCC(=O)O)cc3c2)c2ccccc21 (stereo not drawn) [Compound 1AQ] , what pKi is on record?
7.70 to 8.68

For the compound O=C(O)CCCCc1cc2cc(C(=O)N[C@H]3CCOc4ccccc43)ccc2nc1-c1ccccc1 [Compound 1AL] , what pKi is on record?
6.70 to 7.70

For the compound N#Cc1ccccc1N1CCN(C(=O)c2ccc3nc(-c4ccccc4)c(CCCCC(=O)O)cc3c2)CC1 [Compound 1AZ] , what pKi is on record?
7.70 to 8.68

For the compound O=C(O)CCCCc1cc2cc(C(=O)NCc3ccccc3)ccc2nc1-c1ccc(F)cc1 [Compound 5AN] , what pKi is on record?
6.70 to 7.70
